- TARGET OR SYSTEM: human MCP (Homo sapiens, UniProt P28074+Q99436)
- Construct: Samples of human liver and brain obtained post-mortem were used for isolation and partial purification of MCP; from tissue; host or cells: human liver and brain, post-mortem
- TEST: Determination of IC50 values for MCP inhibitors (chymotrypsin-like or trypsin-like activity of MCP)
- Type: biochemical
- CONDITION: Table 7
Each item that follows carries a reported pIC50.
Keep it numeric: pIC50 is minus log10 of the concentration in mol/L.

[[record]]
compound = "CC(C)CC(NC(=O)[C@H](CCCNC(N)=N[N+](=O)[O-])NC(=O)C(CCCCCCCCC#N)C1CCCC1)B1OC(C)(C)C(C)(C)O1 (some centres unmarked) [Example 40]"
target_or_system = "human MCP (Homo sapiens, UniProt P28074+Q99436)"
measure = "pIC50"
data_value = 8.22


Now let's try a different one.
Find pIC50 (human MCP (Homo sapiens, UniProt P28074+Q99436)) for the entry CCNC(=O)C(=O)[C@H](CC(C)C)NC(=O)[C@H](CCCNC(N)=N[N+](=O)[O-])NC(=O)C(CCCCCCCCC#N)C1CCCC1 (single isomer, unassigned; isomer a) [41 (Isomer a)]
7.66

###

# reported Protein, Treatment (unweighted muscle); entries follow
- Tested on: unweighting atrophy of the soleus muscle
- TEST: Inhibition of unweighting atrophy of the soleus muscle in juvenile rats (muscle protein content)
- Format: in vivo, rat
- CONDITION: Table 3; treated soleus, contralateral muscle received vehicle; MCP inhibitor 1 mM in DMSO, mersalyl 200 nM
Kindly answer with a numeric value in mg/muscle, unit omitted.

[[record]]
molecule = "COC(=O)CCCCCCCC(C(=O)N[C@@H](CCCNC(=N)NS(=O)(=O)c1c(C)c(C)c2c(c1C)CCC(C)(C)O2)C(=O)N[C@H](C=O)CC(C)C)C1CCCC1 (some centres unmarked)"
measure = "Protein, Treatment (unweighted muscle)"
data_value = 6.2

[[record]]
molecule = "COC(CNC(=O)c1ccccc1OCC(=O)O)[CH2][Hg][OH] (centres unmarked) [Mersalyl, reference compound]"
measure = "Protein, Treatment (unweighted muscle)"
data_value = 6.6

[[record]]
molecule = "CC(C)C[C@@H](C=NNC(N)=O)NC(=O)[C@H](CCCNC(=N)N[N+](=O)[O-])NC(=O)C(CCCCCCCCC#N)C1CCCC1 (some centres unmarked)"
measure = "Protein, Treatment (unweighted muscle)"
data_value = 6.0

[[record]]
molecule = "COC(=O)CCCCCCCC(=O)N[C@@H](CCCN=C(N)NS(=O)(=O)c1c(C)cc(OC)c(C)c1C)C(=O)N[C@H](C=O)CC(C)C"
measure = "Protein, Treatment (unweighted muscle)"
data_value = 6.6


Okay, now this molecule:
Could you tell me which Protein, Treatment (unweighted muscle) is on file for CC(C)C[C@@H](C=O)NC(=O)[C@H](CCCNC(=N)N[N+](=O)[O-])NC(=O)C(CCCCCCCCC#N)C1CCCC1 (some centres unmarked) ?
6.4

###

- TARGET OR SYSTEM: human MCP (Homo sapiens, UniProt P28074+Q99436)
- Construct: Samples of human liver and brain obtained post-mortem were used for isolation and partial purification of MCP; from tissue; host or cells: human liver and brain, post-mortem
- TEST: Determination of IC50 values for MCP inhibitors (chymotrypsin-like or trypsin-like activity of MCP)
- Type: biochemical
- CONDITION: Table 5, first series; enzyme incubated with inhibitor 15 minutes at 37° C. prior to substrate
Catalogue of compounds with associated IC50

[[record]]
compound = "COC(=O)CCCCCCCC(=O)N[C@@H](CCCNC(N)=NS(=O)(=O)c1c(C)cc(OC)c(C)c1C)C(=O)N[C@H](C=NNC(N)=O)CC(C)C"
measure = "IC50"
data_value = "220 nM"

[[record]]
compound = "COC(=O)CCCCCCCC(C(=O)N[C@@H](CCCNC(=N)NS(=O)(=O)c1c(C)c(C)c2c(c1C)CCC(C)(C)O2)C(=O)N[C@H](C=O)CC(C)C)C1CCCC1 (stereo partly drawn)"
measure = "IC50"
data_value = "10 nM"

[[record]]
compound = "CCCC[C@@H](C=O)NC(=O)[C@H](CCCNC(=N)NS(=O)(=O)c1c(C)c(C)c2c(c1C)CCC(C)(C)O2)NC(=O)C(CCCCCCCC(=O)OC)C1CCCC1 (stereo partly drawn)"
measure = "IC50"
data_value = "110 nM"

[[record]]
compound = "COC(=O)CCCCCCCC(=O)N[C@@H](CCCN=C(N)NS(=O)(=O)c1c(C)cc(OC)c(C)c1C)C(=O)N[C@H](C=O)CC(C)C"
measure = "IC50"
data_value = "80 nM"

[[record]]
compound = "COC(=O)CCCCCCCC(=O)N[C@@H](CCCNC(=N)NS(=O)(=O)c1c(C)c(C)c2c(c1C)CCC(C)(C)O2)C(=O)N[C@H](C=O)CC(C)C"
measure = "IC50"
data_value = "20 nM"

[[record]]
compound = "CON=C[C@H](CC(C)C)NC(=O)[C@H](CCCN=C(N)N[N+](=O)[O-])NC(=O)C(CCCCCCCCC#N)C1CCCC1 (stereo partly drawn)"
measure = "IC50"
data_value = "700 nM"

[[record]]
compound = "CCCC[C@@H](C=O)NC(=O)[C@H](CCCN=C(N)NS(=O)(=O)c1c(C)c(C)c2c(c1C)CCC(C)(C)O2)NC(=O)CCCCCCCC(=O)OC"
measure = "IC50"
data_value = "> 100 nM"

[[record]]
compound = "COC(=O)CCCCCCCC(=O)N[C@@H](CCCN=C(N)N[N+](=O)[O-])C(=O)N[C@H](C=O)CC(C)C"
measure = "IC50"
data_value = "40 nM"


Look at this compound and give its reported IC50. Cc1c(C)c(S(=O)(=O)NC(=N)NCCC[C@H](NC(=O)C(CCCCCCCCC#N)C2CCCC2)C(=O)N[C@H](C=O)CC(C)C)c(C)c2c1OC(C)(C)CC2 (stereo partly drawn)
20 nM

What measured IC50 goes with CC(C)C[C@@H](C=NNC(N)=O)NC(=O)[C@H](CCCNC(=N)N[N+](=O)[O-])NC(=O)C(CCCCCCCCC#N)C1CCCC1 (stereo partly drawn) ?
100 nM

Field request: IC50 | item: CC(C)C[C@@H](C=O)NC(=O)[C@H](CCCNC(=N)N[N+](=O)[O-])NC(=O)C(CCCCCCCCN1C(=O)c2ccccc2C1=O)C1CCCC1 (stereo partly drawn)
2 nM

Which IC50 value is on record for COC(=O)CCCCCCCC(C(=O)N[C@@H](CCCNC(N)=NS(=O)(=O)c1c(C)cc(OC)c(C)c1C)C(=O)N[C@H](C=O)CC(C)C)C1CCCC1 (stereo partly drawn) ?
30 nM

###

- TARGET OR SYSTEM: human MCP (Homo sapiens, UniProt P28074+Q99436)
- Construct: Samples of human liver and brain obtained post-mortem were used for isolation and partial purification of MCP; from tissue; host or cells: human liver and brain, post-mortem
- TEST: Determination of IC50 values for MCP inhibitors (chymotrypsin-like or trypsin-like activity of MCP)
- Type: biochemical
- CONDITION: Table 7
pIC50: −log10 of the molar value.
# maps each entry to its pIC50

Recorded pIC50 for N#CCCCCCCCCC(C(=O)N[C@@H](CCCNC(N)=N[N+](=O)[O-])C(=O)NC(Cc1ccccc1)C(=O)CF)C1CCCC1 (stereo partly drawn) [Example 42] with human MCP (Homo sapiens, UniProt P28074+Q99436), please?
< 6.00

Kindly state the measured pIC50 obtained for CC(C)C[C@H](NC(=O)[C@H](CCCNC(=N)N[N+](=O)[O-])NC(=O)C(CCCCCCCCC#N)C1CCCC1)C(=O)CCl (single isomer, unassigned; isomer b) [39 (Isomer b)] with human MCP (Homo sapiens, UniProt P28074+Q99436).
< 6.00

# get_value(readout= pIC50, system= human MCP (Homo sapiens, UniProt P28074+Q99436)) for CC(C)C[C@H](NC(=O)[C@H](CCCNC(=N)N[N+](=O)[O-])NC(=O)C(CCCCCCCCC#N)C1CCCC1)C(=O)CCl (single isomer, unassigned; isomer a) [39 (Isomer a)]
< 6.00
